Reference source: ChEMBL document CHEMBL5500402

Property: pEC50; scope: individual compounds
# STUDY SYSTEM: N-arachidonyl glycine receptor (Mus musculus)
# Sequence (Q8K1Z6 whole entry): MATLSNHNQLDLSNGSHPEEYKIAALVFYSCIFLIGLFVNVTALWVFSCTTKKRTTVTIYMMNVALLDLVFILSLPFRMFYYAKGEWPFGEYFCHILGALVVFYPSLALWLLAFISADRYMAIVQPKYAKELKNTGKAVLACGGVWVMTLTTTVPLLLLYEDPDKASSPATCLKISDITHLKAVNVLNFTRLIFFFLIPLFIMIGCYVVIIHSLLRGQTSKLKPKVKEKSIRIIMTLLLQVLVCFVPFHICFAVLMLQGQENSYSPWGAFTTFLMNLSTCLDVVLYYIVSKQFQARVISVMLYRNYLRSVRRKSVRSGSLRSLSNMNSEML
Reminder that pEC50 is minus the log10 of a molar concentration.

Check out these entries, answers already filled in.
>  <COMPOUND STRING>
COc1ccc(Cn2c(NCCc3c[nH]c4ccccc34)nc3c2c(=O)n(C)c(=O)n3C)cc1

>  <STUDY SYSTEM>
N-arachidonyl glycine receptor (Mus musculus)

>  <MEASUREMENT KIND>
pEC50

>  <ASSAY RESULT>
6.77

$$$$
>  <COMPOUND STRING>
Cn1c(=O)c2c(nc(NCCc3c[nH]c4ccccc34)n2Cc2ccc(Cl)cc2)n(CC#N)c1=O

>  <STUDY SYSTEM>
N-arachidonyl glycine receptor (Mus musculus)

>  <MEASUREMENT KIND>
pEC50

>  <ASSAY RESULT>
6.01

$$$$
>  <COMPOUND STRING>
Cn1c(=O)c2c(nc(NCCc3c[nH]c4ccccc34)n2CCC2CCCCC2)n(C)c1=O

>  <STUDY SYSTEM>
N-arachidonyl glycine receptor (Mus musculus)

>  <MEASUREMENT KIND>
pEC50

>  <ASSAY RESULT>
6.90

$$$$
>  <COMPOUND STRING>
Cn1c(=O)c2c(nc(NCCc3c[nH]c4ccccc34)n2Cc2ccc(N)cc2)n(C)c1=O

>  <STUDY SYSTEM>
N-arachidonyl glycine receptor (Mus musculus)

>  <MEASUREMENT KIND>
pEC50

>  <ASSAY RESULT>
6.62

$$$$
>  <COMPOUND STRING>
Cn1c(=O)c2c(nc(NCCc3c[nH]c4ccccc34)n2Cc2ccc(Cl)cc2)n(CCF)c1=O

>  <STUDY SYSTEM>
N-arachidonyl glycine receptor (Mus musculus)

>  <MEASUREMENT KIND>
pEC50

>  <ASSAY RESULT>
6.40

$$$$
>  <COMPOUND STRING>
Cn1c(=O)c2c(nc(NCCc3c[nH]c4ccccc34)n2Cc2cccc(F)c2)n(C)c1=O

>  <STUDY SYSTEM>
N-arachidonyl glycine receptor (Mus musculus)

>  <MEASUREMENT KIND>
pEC50

>  <ASSAY RESULT>
6.52

$$$$
>  <COMPOUND STRING>
Cn1c(=O)c2c(nc3n2CCCCN3CCc2c[nH]c3ccccc23)n(C)c1=O

>  <STUDY SYSTEM>
N-arachidonyl glycine receptor (Mus musculus)

>  <MEASUREMENT KIND>
pEC50

>  <ASSAY RESULT>
6.24

$$$$

Alright, here's another compound for you.
Request: Please list pEC50 recorded for the compound Cn1c(=O)c2c(nc3n2CCCN3CCc2c[nH]c3ccccc23)n(C)c1=O
Result: 5.75
